B1: KLHL20 (parent)
chain: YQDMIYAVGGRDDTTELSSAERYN

Variants of: B1
Experiment: protein stability index of a GFP-peptide fusion (GPS, HEK-293T) (PSI 1-6); higher = more stable;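 further: lentivirally expressed fusions sorted by FACS into six bins by GFP to DsRed ratio, PSI derived from sequencing read proportions per bin multiplied by bin number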
Conditions: c terminus: a fixed tail appended
attributeMeasured: protein stability index
Give your answer as a number; write no unit.

sequencechange=D3S attributemeasured="protein stability index" endpointresult=1.99
sequencechange=N24K attributemeasured="protein stability index" endpointresult=2.16
sequencechange=A20Y attributemeasured="protein stability index" endpointresult=1.78
sequencechange=Q2C attributemeasured="protein stability index" endpointresult=2.02
sequencechange=S19H attributemeasured="protein stability index" endpointresult=2.33

Please supply the value of reported protein stability index for the item `S18R`
1.99

Please report protein stability index for the following variant: `D3R`
2.83

Please report the measured protein stability index for `E16G`
2.28

Return protein stability index for the following variant: `S18W`
2.27

Look up and state reported protein stability index for `R22F`
2.48

Read the entry `M4S` and write its reported protein stability index.
3.27

The origin of these recorded values is the supplement of paper PMC10567573.
